Test system: VDR homodimer (NR concentration 270 nM)
PROTOCOL_TEXT: PBM binding z-score (relative to random genomic background probes); higher = stronger binding; sequences stand for … in GC…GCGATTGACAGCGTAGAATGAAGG
Each record gets a class by PBM binding z-score: low end (below -0.3), middle (-0.3 to below 2), high end (2 or more)

// below: answered sequences
> print(dat)
                      sequence.record  assigned.category
1  GCGACTGGGGCATCAGCAGCTTACCATAACTTAA            low end
2  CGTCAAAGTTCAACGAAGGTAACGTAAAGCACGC           high end
3  AGTCAAAGTTCAGGACGAGGGAACGTAAAGCACG             middle
4  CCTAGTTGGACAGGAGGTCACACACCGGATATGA           high end

Textbook exercise: identify the category of the sequence given here, CGGAGTAGGTTATGGGGCATTCAGGCAACGGTGA , according to its measured value.
middle

Textbook exercise: identify the category of the sequence given here, CCTTACGGGTCACTGACAGGTTATATCATTTGGA , according to its measured value.
middle

Textbook exercise: identify the category of the sequence given here, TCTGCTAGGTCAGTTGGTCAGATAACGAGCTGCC , according to its measured value.
low end

Textbook exercise: identify the category of the sequence given here, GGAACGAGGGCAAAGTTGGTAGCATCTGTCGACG , according to its measured value.
middle

Textbook exercise: identify the category of the sequence given here, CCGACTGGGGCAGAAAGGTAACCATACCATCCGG , according to its measured value.
middle
